B1: HDV Ribozyme (parent)
chain: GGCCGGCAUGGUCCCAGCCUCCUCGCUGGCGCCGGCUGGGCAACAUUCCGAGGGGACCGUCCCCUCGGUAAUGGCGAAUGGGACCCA

- Variants of: B1
- protocolNotes: self-cleavage, relative activity (ratio to wild type); higher = more cleavage; co-transcriptional
Where self-cleavage equals or exceeds 0.1, the correct label is Y; where it does not, the label is N.

Previously resolved entries follow.
Exam item: self-cleavage >= 0.1 for C18G A77C ?
Marked response: Y

Exam item: Check the entry G2C C18U : does self-cleavage equal or exceed 0.1?
Marked response: N

Exam item: Decide: is the reported value of self-cleavage for G39A C49A equal to or greater than 0.1?
Marked response: Y

Exam item: Dear colleague, could you confirm whether G28U U46A has self-cleavage at or above 0.1?
Marked response: Y

Further cases:
Exam item: State whether the measured self-cleavage reaches 0.1, counting equality as reaching it, for G67A G80U
Marked response: Y

Exam item: Given C3A A87G , state whether its self-cleavage is at least 0.1.
Marked response: Y

Exam item: self-cleavage >= 0.1 for G80C C84A ?
Marked response: Y

Exam item: Decide: self-cleavage of C30G G73A >= 0.1?
Marked response: N

Exam item: Does self-cleavage meet or surpass 0.1 for C19U G81U ?
Marked response: Y

Exam item: Given G76A U79G , state whether its self-cleavage is at least 0.1.
Marked response: Y

Exam item: Given the entry C13G C24A , answer whether its self-cleavage meets or surpasses 0.1.
Marked response: N

Exam item: Given the entry G29C A78G , answer whether its self-cleavage meets or surpasses 0.1.
Marked response: N

Exam item: Given the entry C36A G76C , answer whether its self-cleavage meets or surpasses 0.1.
Marked response: Y

Exam item: Is the recorded value of self-cleavage equal to or greater than 0.1 for this variant? C14G U69A
Marked response: Y

Exam item: Tell me whether self-cleavage is at least 0.1 here: C22G U37A
Marked response: N

Exam item: Assess whether reported self-cleavage for G1A G59A sits at 0.1 or higher.
Marked response: N

Exam item: Quick check, self-cleavage >= 0.1? G25U U79A
Marked response: N

Exam item: Hello, I need to know if U12G U65A has measured self-cleavage not below 0.1. Thanks!
Marked response: Y
